- Test system: T47D
- procedure.text: Microculture tetrazolium assay
- Assay type: cell-based
- recorded.conditions: Homo sapiens, read-out: IC50
Where a name gives a salt, the structure may show the parent alone.
Provide the reported IC50 of each item.
One number for each entry, in µM.

| compound | measured.number |
| --- | --- |
| CCOC(=O)C1CC2=C(CO1)C(=O)c1c(cc3ccccc3c1OC(C)=O)C2=O (stereo not drawn) | 65.6 |
| COC[C@@H]1CC2=C(C(=O)c3cc4ccccc4c(O)c3C2=O)[C@@H](O[C@H]2C[C@H](N)[C@H](O)[C@H](C)O2)O1 | 12.8 |
| CC(C)C(=O)C1Cc2c(O)c3c(c(O)c2C(O[C@H]2C[C@H](N)[C@H](O)[C@H](C)O2)O1)C(=O)c1ccccc1C3=O (mixture of isomers) [BCH-2120, hydrochloride] | 0.314 |
| CC(=O)C1CC2=C(C(=O)c3cc4ccccc4c(O)c3C2=O)C(O[C@H]2C[C@H](NC(=O)C(F)(F)F)[C@H](OC(=O)c3ccc([N+](=O)[O-])cc3)[C@H](C)O2)O1 (mixture of isomers) | 6.79 |

Now, please, on to the next compound.
Ask | Consider the compound CC1(C2Cc3c(O)c4c(c(O)c3CO2)C(=O)c2ccccc2C4=O)OCCCO1 (stereo not drawn) . State its measured IC50.
Reply | 12.6
